Provenance of the data: the supplement of paper PMC9112550

# System: Escherichia coli TOP10;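 also: peptides expressed intracellularly from a pBAD plasmid library in pooled LB shake-flask culture, induced with 0.3% L-arabinose, DNA abundance read by NGS, three biological replicates, DESeq2 with apeglm shrinkage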
# protocol.details: shrunken log2 fold change of peptide-encoding DNA abundance (4.5 h post-induction vs induction); higher = less antimicrobial activity (less host growth inhibition)
# measurement.setup: time post-induction: 4.5 h; library: site-saturation at positions 5, 18, 19, 20
Is shrunken log2 fold change at least 0.2? Then satisfied. If not, not satisfied.

Ask | Reported shrunken log2 fold change at or above 0.2? `RRIRGRPPRLPRPRPRPMYFPRP`
Reply | not satisfied

Ask | Reported shrunken log2 fold change at or above 0.2? `RRIRYRPPRLPRPRPRPYTHPRP`
Reply | not satisfied

Ask | Reported shrunken log2 fold change at or above 0.2? `RRIRKRPPRLPRPRPRPPHIPRP`
Reply | satisfied

Ask | Reported shrunken log2 fold change at or above 0.2? `RRIRLRPPRLPRPRPRPVGWPRP`
Reply | satisfied

Ask | Reported shrunken log2 fold change at or above 0.2? `RRIRKRPPRLPRPRPRPDKQPRP`
Reply | not satisfied

Ask | Reported shrunken log2 fold change at or above 0.2? `RRIRWRPPRLPRPRPRPWTWPRP`
Reply | not satisfied

Ask | Reported shrunken log2 fold change at or above 0.2? `RRIRCRPPRLPRPRPRPSNNPRP`
Reply | not satisfied

Ask | Reported shrunken log2 fold change at or above 0.2? `RRIRIRPPRLPRPRPRPHNPPRP`
Reply | not satisfied

Ask | Reported shrunken log2 fold change at or above 0.2? `RRIRTRPPRLPRPRPRPAEAPRP`
Reply | not satisfied

Ask | Reported shrunken log2 fold change at or above 0.2? `RRIRCRPPRLPRPRPRPGYRPRP`
Reply | not satisfied

Ask | Reported shrunken log2 fold change at or above 0.2? `RRIRYRPPRLPRPRPRPFWYPRP`
Reply | not satisfied

Ask | Reported shrunken log2 fold change at or above 0.2? `RRIRARPPRLPRPRPRPCHDPRP`
Reply | not satisfied

Ask | Reported shrunken log2 fold change at or above 0.2? `RRIRRRPPRLPRPRPRPTMLPRP`
Reply | not satisfied

Ask | Reported shrunken log2 fold change at or above 0.2? `RRIRRRPPRLPRPRPRPGTGPRP`
Reply | satisfied

Ask | Reported shrunken log2 fold change at or above 0.2? `RRIRGRPPRLPRPRPRPLIHPRP`
Reply | satisfied

Ask | Reported shrunken log2 fold change at or above 0.2? `RRIRERPPRLPRPRPRPMIIPRP`
Reply | not satisfied

Ask | Reported shrunken log2 fold change at or above 0.2? `RRIRPRPPRLPRPRPRPFWFPRP`
Reply | not satisfied

Ask | Reported shrunken log2 fold change at or above 0.2? `RRIRSRPPRLPRPRPRPLSWPRP`
Reply | satisfied

Ask | Reported shrunken log2 fold change at or above 0.2? `RRIRTRPPRLPRPRPRPYPNPRP`
Reply | not satisfied

Ask | Reported shrunken log2 fold change at or above 0.2? `RRIRLRPPRLPRPRPRPLPWPRP`
Reply | satisfied

Ask | Reported shrunken log2 fold change at or above 0.2? `RRIRKRPPRLPRPRPRPESGPRP`
Reply | satisfied

Ask | Reported shrunken log2 fold change at or above 0.2? `RRIRHRPPRLPRPRPRPYPCPRP`
Reply | not satisfied

Ask | Reported shrunken log2 fold change at or above 0.2? `RRIRCRPPRLPRPRPRPRWTPRP`
Reply | satisfied

Ask | Reported shrunken log2 fold change at or above 0.2? `RRIRSRPPRLPRPRPRPSQWPRP`
Reply | not satisfied

Ask | Reported shrunken log2 fold change at or above 0.2? `RRIRQRPPRLPRPRPRPGWHPRP`
Reply | not satisfied

Ask | Reported shrunken log2 fold change at or above 0.2? `RRIRNRPPRLPRPRPRPIPDPRP`
Reply | not satisfied

Ask | Reported shrunken log2 fold change at or above 0.2? `RRIRVRPPRLPRPRPRPTHHPRP`
Reply | satisfied

Ask | Reported shrunken log2 fold change at or above 0.2? `RRIRNRPPRLPRPRPRPENTPRP`
Reply | not satisfied

Ask | Reported shrunken log2 fold change at or above 0.2? `RRIRGRPPRLPRPRPRPHQVPRP`
Reply | not satisfied

Ask | Reported shrunken log2 fold change at or above 0.2? `RRIRGRPPRLPRPRPRPACDPRP`
Reply | satisfied

Ask | Reported shrunken log2 fold change at or above 0.2? `RRIRWRPPRLPRPRPRPKSDPRP`
Reply | satisfied
